src = BindingDB's records for doi:10.1021/jm800566m

experiment: The assay uses purified baculovirus-expressed GST-VEGFR2 interacting with biotinylated peptide substrates. HTRF is based on the proximity of europium cryptate (donor fluorophore)-labeled antiphosphotyrosine and streptavidin labeled with APC (allophycocyanin), which have been brought together by a binding reaction.; settings: pH 7.5
Experimental Endpoint: IC50 (nM)

These solved cases illustrate the format of a correct answer.
>  <Structure>
CN(c1ccc2cn(C)nc2c1)c1ccnc(Nc2cccc(S(N)(=O)=O)c2)n1

>  <Measured Result>
7.6

$$$$
>  <Structure>
Cc1c2ccc(N(C)c3ccnc(Nc4cccc(S(N)(=O)=O)c4)n3)cc2nn1Cc1ccccc1

>  <Measured Result>
2.6

$$$$
>  <Structure>
Cc1n[nH]c2cc(N(C)c3ccnc(Nc4cccc(S(N)(=O)=O)c4)n3)ccc12

>  <Measured Result>
0.6

$$$$

P: Cc1c2ccc(N(C)c3ccnc(Nc4cccc(S(N)(=O)=O)c4)n3)cc2nn1C
Q: Cc1nn(C)c2cc(N(C)c3ccnc(Nc4cccc(S(N)(=O)=O)c4)n3)ccc12
R: Cc1nc2ccc(N(C)c3ccnc(Nc4cccc(S(N)(=O)=O)c4)n3)cc2n1C
S: Cc1nc2cc(N(C)c3ccnc(Nc4cccc(S(N)(=O)=O)c4)n3)ccc2n1C
*Q* Task for the reader: rank each entry by its IC50, from the minimum upward. Your reply should list the labels following the order given in the request.
*A* P, S, Q, R
